System: HCV GT1b(Con1) replicon
protocol_notes: HCV replicon luciferase reporter assay, genotype 1b
Format: cell-based, HCV genotype 1b
experimental_context: Hepatitis C virus, 72 h, HUH-7 cells, 3 days incubation, read-out: LE_1b (EC50, range)
Recorded EC50 values for a group of compounds are listed next.

CC[C@@H]1C[C@@H](C)CC/C=C\[C@@H]2C[C@@]2(C(=O)NS(=O)(=O)C2(C)CC2)NC(=O)[C@@H]2C[C@@H](OC(=O)N3Cc4cccc(F)c4C3)CN2C(=O)[C@H]1NC(=O)OC(C)(C)C [Compound 1312] | 1.01 to 5 nM
C[C@@H]1CC/C=C\[C@@H]2C[C@@]2(C(=O)NS(=O)(=O)C2(C)CC2)NC(=O)[C@@H]2C[C@@H](OC(=O)N3Cc4cccc(F)c4C3)CN2C(=O)[C@@H](NC(=O)OC(C)(C)C)[C@H](C)C1 [Compound 1315] | 0.1 to 0.5 nM

// EC50 lookup, key: COc1ccc(C(=O)O[C@@H]2C[C@H]3C(=O)N[C@]4(C(=O)NS(=O)(=O)C5(C)CC5)C[C@H]4/C=C\CC[C@@H](C)C[C@@H](C)[C@H](NC(=O)OC(C)(C)C)C(=O)N3C2)cc1 [Compound 1003]
5.01 to 35 nM

// EC50 lookup, key: C[C@@H]1CC/C=C\[C@@H]2C[C@@]2(C(=O)NS(=O)(=O)C2(CF)CC2)NC(=O)[C@@H]2C[C@@H](OC(=O)c3ccc4c(c3)OCO4)CN2C(=O)[C@@H](NC(=O)OC(C)(C)C(F)(F)F)[C@H](C)C1 [Compound 1011]
1.01 to 5 nM

// EC50 lookup, key: C[C@@H]1CC/C=C\[C@@H]2C[C@@]2(C(=O)NS(=O)(=O)C2(C)CC2)NC(=O)[C@@H]2C[C@@H](OC(=O)Nc3ccc(F)cc3)CN2C(=O)[C@@H](NC(=O)OC(C)(C)C)[C@H](C)C1 [Compound 1304]
5.01 to 35 nM

// EC50 lookup, key: C[C@@H]1CC/C=C\[C@@H]2C[C@@]2(C(=O)NS(=O)(=O)C2(C)CC2)NC(=O)[C@@H]2C[C@@H](OC(=O)Nc3ccccc3C(F)(F)F)CN2C(=O)[C@@H](NC(=O)OC(C)(C)C(F)(F)F)[C@H](C)C1 [Compound 1307]
1.01 to 5 nM

// EC50 lookup, key: COc1ccccc1C(=O)O[C@@H]1C[C@H]2C(=O)N[C@]3(C(=O)NS(=O)(=O)C4(CF)CC4)C[C@H]3/C=C\CC[C@@H](C)C[C@@H](C)[C@H](NC(=O)OC(C)(C)C(F)(F)F)C(=O)N2C1 [Compound 1008]
1.01 to 5 nM

* * *

Test system: HCV GT1b(Con1) replicon
protocol_notes: HCV replicon luciferase reporter assay, genotype 1b
Assay type: cell-based, HCV genotype 1b
experimental_context: Hepatitis C virus, 72 h, HUH-7 cells, 3 days incubation, read-out: LE_1b (EC50, range)
pEC50: −log10 of the molar value.
Recorded pEC50 values for a group of molecules are listed next.

C[C@@H]1CC/C=C\[C@@H]2C[C@@]2(C(=O)NS(=O)(=O)C2(C)CC2)NC(=O)[C@@H]2C[C@@H](OC(=O)c3ccc4c(c3)OCCO4)CN2C(=O)[C@@H](NC(=O)OC(C)(C)C(F)(F)F)[C@H](C)C1 | 8.30 to 9.00

Recall the recorded pEC50 for COc1ccc(C(=O)O[C@@H]2C[C@H]3C(=O)N[C@]4(C(=O)NS(=O)(=O)C5(C)CC5)C[C@H]4/C=C\CC[C@@H](C)C[C@@H](C)[C@H](NC(=O)OC(C)(C)C(F)(F)F)C(=O)N3C2)cc1 with HCV GT1b(Con1) replicon and state it.
9.00 to 9.29

Recall the recorded pEC50 for C[C@@H]1CC/C=C\[C@@H]2C[C@@]2(C(=O)NS(=O)(=O)C2(CF)CC2)NC(=O)[C@@H]2C[C@@H](OC(=O)c3cccc(F)c3)CN2C(=O)[C@@H](NC(=O)OC(C)(C)C(F)(F)F)[C@H](C)C1 with HCV GT1b(Con1) replicon and state it.
8.30 to 9.00

Recall the recorded pEC50 for C[C@@H]1CC/C=C\[C@@H]2C[C@@]2(C(=O)NS(=O)(=O)C2(CF)CC2)NC(=O)[C@@H]2C[C@@H](OC(=O)c3ccccc3C(F)(F)F)CN2C(=O)[C@@H](NC(=O)OC(C)(C)C(F)(F)F)[C@H](C)C1 with HCV GT1b(Con1) replicon and state it.
8.30 to 9.00
